- assay procedure: physchem
- Type: physicochemical
- experimental context: Example 13, Tables 20 and 21; read-out: pKa of compounds
readout: pKa
Kindly provide the number alone.

c1c[nH]cn1 ... 6.9

Dear colleague, I am looking for the recorded pKa of the following molecule: c1nnn[nH]1
8.4
